protocol: Inhibition of platelet aggregation in citreated human platelet rich plasma (PRP)
reported metric: IC50 (nM)
Could you give me the number in nM? Just the number is fine.

# count of solved cases: 5
# compound, unit tag, IC50
rows = [
    ("COP(=O)(NC(CNC(=O)CC1CC(c2ccc(C(=N)N)cc2)=NO1)C(=O)O)OC (stereo unspecified)", "nM", 105),
    ("CCOP(=O)(NC(CNC(=O)CC1CC(c2ccc(C(=N)N)cc2)=NO1)C(=O)O)OCC (stereo unspecified)", "nM", 117),
    ("C=CCOP(=O)(NC(CNC(=O)CC1CC(c2ccc(C(=N)N)cc2)=NO1)C(=O)O)OCC=C (stereo unspecified)", "nM", 122),
    ("N=C(N)c1ccc(C2=NOC(CC(=O)NCC(NP(=O)(O)O)C(=O)O)C2)cc1 (stereo unspecified)", "nM", 260),
    ("CCCCOP(=O)(NC(CNC(=O)CC1CC(c2ccc(C(=N)N)cc2)=NO1)C(=O)O)OCCCC (stereo unspecified)", "nM", 114),
]

Param item = CC(C)OP(=O)(NC(CNC(=O)CC1CC(c2ccc(C(=N)N)cc2)=NO1)C(=O)O)OC(C)C (stereo unspecified) ; retrieve measured IC50.
103
